Cited source: the supplement of paper PMC10307832

- Tested on: H3255
- assay remarks: relative viability (nuclei count vs DMSO), 5 days (fraction); higher = more cells survive
- measurement conditions: first compound 20 µM
recorded metric: relative viability

{"compound": "Cc1csc(=NC2CCCCC2)n1/N=C/c1ccc(O)c(O)c1O [MIM1] + Cc1nc(Nc2ncc(C(=O)Nc3c(C)cccc3Cl)s2)cc(N2CCN(CCO)CC2)n1 [Dasatinib] (partner 0.075 µM)", "number": 0.255}
{"compound": "Cc1csc(=NC2CCCCC2)n1/N=C/c1ccc(O)c(O)c1O [MIM1] + CCNC(=O)c1noc(-c2cc(C(C)C)c(O)cc2O)c1-c1ccc(CN2CCOCC2)cc1 [Luminespib] (partner 0.01 µM)", "number": 0.34}
{"compound": "Cc1csc(=NC2CCCCC2)n1/N=C/c1ccc(O)c(O)c1O [MIM1] + Cc1cc(Nc2cc(N3CCN(C)CC3)nc(Sc3ccc(NC(=O)C4CC4)cc3)n2)n[nH]1 [Tozasertib] (partner 0.1 µM)", "number": 0.277}
{"compound": "Cc1csc(=NC2CCCCC2)n1/N=C/c1ccc(O)c(O)c1O [MIM1] + O=C(c1cc(Cc2n[nH]c(=O)c3ccccc23)ccc1F)N1CCN(C(=O)C2CC2)CC1 [Olaparib] (partner 8 µM)", "number": 0.253}
{"compound": "Cc1csc(=NC2CCCCC2)n1/N=C/c1ccc(O)c(O)c1O [MIM1] + CC(=O)c1c(C)c2cnc(Nc3ccc(N4CCNCC4)cn3)nc2n(C2CCCC2)c1=O [Palbociclib] (partner 0.5 µM)", "number": 0.243}
{"compound": "Cc1csc(=NC2CCCCC2)n1/N=C/c1ccc(O)c(O)c1O [MIM1] + Nc1nc2[nH]cc(CCc3ccc(C(=O)N[C@@H](CCC(=O)O)C(=O)O)cc3)c2c(=O)[nH]1 [Pemetrexed] (partner 0.2 µM)", "number": 0.312}
{"compound": "Cc1csc(=NC2CCCCC2)n1/N=C/c1ccc(O)c(O)c1O [MIM1] + COc1cc2c(Oc3ccc(NC(=O)C4(C(=O)Nc5ccc(F)cc5)CC4)cc3F)ccnc2cc1OCCCN1CCOCC1 [Foretinib] (partner 0.25 µM)", "number": 0.307}

----------
- Tested on: NCI-H838
- assay remarks: relative viability (nuclei count vs DMSO), 5 days (fraction); higher = more cells survive
- measurement conditions: first compound 0.01 µM
Quick reference: relative viability of the listed items.
recorded metric: relative viability

{"compound": "Cc1cn(-c2cc(NC(=O)c3ccc(C)c(Nc4nccc(-c5cccnc5)n4)c3)cc(C(F)(F)F)c2)cn1 [Nilotinib] + Cc1nc(Nc2ncc(C(=O)Nc3c(C)cccc3Cl)s2)cc(N2CCN(CCO)CC2)n1 [Dasatinib] (partner 0.075 µM)", "number": 0.278}
{"compound": "Cc1cn(-c2cc(NC(=O)c3ccc(C)c(Nc4nccc(-c5cccnc5)n4)c3)cc(C(F)(F)F)c2)cn1 [Nilotinib] + CC(C)C[C@H](NC(=O)[C@H](Cc1ccccc1)NC(=O)c1cnccn1)B(O)O [Bortezomib] (partner 0.002 µM)", "number": 0.976}
{"compound": "Cc1cn(-c2cc(NC(=O)c3ccc(C)c(Nc4nccc(-c5cccnc5)n4)c3)cc(C(F)(F)F)c2)cn1 [Nilotinib] + CCNC(=O)c1noc(-c2cc(C(C)C)c(O)cc2O)c1-c1ccc(CN2CCOCC2)cc1 [Luminespib] (partner 0.01 µM)", "number": 0.308}
{"compound": "Cc1cn(-c2cc(NC(=O)c3ccc(C)c(Nc4nccc(-c5cccnc5)n4)c3)cc(C(F)(F)F)c2)cn1 [Nilotinib] + C[C@]1(O)C[C@@H](c2nc(-c3ccc4ccc(-c5ccccc5)nc4c3)c3c(N)nccn32)C1 [Linsitinib] (partner 1 µM)", "number": 1.39}
{"compound": "Cc1cn(-c2cc(NC(=O)c3ccc(C)c(Nc4nccc(-c5cccnc5)n4)c3)cc(C(F)(F)F)c2)cn1 [Nilotinib] + O=C(c1cc(Cc2n[nH]c(=O)c3ccccc23)ccc1F)N1CCN(C(=O)C2CC2)CC1 [Olaparib] (partner 8 µM)", "number": 0.878}
{"compound": "Cc1cn(-c2cc(NC(=O)c3ccc(C)c(Nc4nccc(-c5cccnc5)n4)c3)cc(C(F)(F)F)c2)cn1 [Nilotinib] + C[C@@H](Oc1cc(-c2cnn(C3CCNCC3)c2)cnc1N)c1c(Cl)ccc(F)c1Cl [Crizotinib] (partner 1 µM)", "number": 1.03}
{"compound": "Cc1cn(-c2cc(NC(=O)c3ccc(C)c(Nc4nccc(-c5cccnc5)n4)c3)cc(C(F)(F)F)c2)cn1 [Nilotinib] + CS(=O)(=O)N1CCN(Cc2cc3nc(-c4cccc5[nH]ncc45)nc(N4CCOCC4)c3s2)CC1 [Pictilisib] (partner 1 µM)", "number": 0.335}
